- TARGET OR TEST SYSTEM: recombinant human IL-21 (rhIL-21) (human, UniProt Q9HBE4 30-162, limits assumed)
- Sequence (Q9HBE4 30-162 limits assumed): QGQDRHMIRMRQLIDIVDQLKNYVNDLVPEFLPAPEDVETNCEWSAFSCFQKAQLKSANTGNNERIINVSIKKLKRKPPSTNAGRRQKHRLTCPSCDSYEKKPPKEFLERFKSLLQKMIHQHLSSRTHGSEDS
- ASSAY: cell-based or functional assay
As shown below, each of these binders has a reported % pSTAT3+ Jurkat cells, 0.1 nM rhIL-21 + 0.1012 nM antibody value.
Value expressed in %; do not type the unit.

binder="FYP014 (antibody, human IgG1, V domains shown, human IgG1; also called EP3103813A1 clone 366.328.10.63) VH: EVQLVESGGGLVKPGGSLRLSCAASGFIFSSYSMNWVRQAPGKGLEWVSSITSGSYYIHYADSVKGRFTISRDNAKNSLYLQMNSLRAEDTAVYYCVRERGWGYYGMDVWGQGTTVTVSS VL: AIQLTQSPSSLSASVGDRVTITCRASQDIDSALAWYQQKPGKAPKILIHDASSLESGVPSRFSGSGSGTDFTLTISSLQPEDFATYYCQQFNSYPYTFGQGTKLEIK" measured=59.4

Enquiry: Quick check: % pSTAT3+ Jurkat cells, 0.1 nM rhIL-21 + 0.1012 nM antibody of LKK631 (antibody, human IgG1, V domains shown) VH: EVQLQQFGAEVVKPGASVKMSCKASGYTFTDYNMNWVKQSHEKSLEWIGDIHPKFHSTNYNQKFKGKATLTIDTSSSTAYMELRNLTSEDTAVYYCARVGNYVYFVMDYWGQGTSVTVSS VL: SIVMTQTPKFLLVSAGDRVTITCKASQSVSNDVAWYQQKPGQSPKLLIYYASNRYTGVPDRFSGSGYGTDFTFTISTVQAEDLAVYFCQQDYTSPWTFGGGTKLEIK ?
Return: 81

Enquiry: Next binder up: ZAP122 (antibody, human IgG1, V domains shown) VH: QVQLQESGPGLVKPSETLSLTCTVSGGSISSDFWGWIRQPPGKGLEWIGYISSRGSTNYNPSLKRRVTISVDTSRNQFSLKLSSVTAADTAVYYCARSAGVTDFDFWGQGTLVTVSS VL: DIQMTQSPSSVSASVGDRVTITCRASQGISSWLAWYQHKPGKAPKLLIYVASSLQSGVPSRFSGSGSGTDFTLTISSLQPEDFATYYCQQANSFPLTFGGGTKVEIK
Return: 33.3

Enquiry: Next binder up: MIZ926 (antibody, human IgG1, V domains shown) VH: EVQLVESGGGSVKPGGSLKLSCAASGLTFSHYYMYWVRQTPEKRLEWVAIISDGGDYTHYSDSVKGRFTISRDNAKNNLYLQMSSLQSEDTAMYYCAGDYGYGYEGWFAYWGQGTLVTVST VL: DIVMTQSQKFMSTSVGDRVSVTCKASQNVDTYVAWYQQKPGQSPKALIYSTSYRYSGVPDRFTGSGSGTDFTLTISNVQSEDLAEYFCQQYNSYPWTFGGGTKLEIK
Return: 75.1
